- tested_system: T1, Recombinant human B7-H3 extracellular domain protein (UniProtKB-Q5ZPR3, amino acids 1-461, C-His tag) (human, UniProt Q5ZPR3 29-461)
- T1 construct: range 1-461; The printed range 1-461 starts at residue 1 and so covers the signal peptide; also called human B7-H3 ECD-His; recombinant human B7-H3 ECD protein; not shown: C-terminal His tag
- T1 sequence (looked up): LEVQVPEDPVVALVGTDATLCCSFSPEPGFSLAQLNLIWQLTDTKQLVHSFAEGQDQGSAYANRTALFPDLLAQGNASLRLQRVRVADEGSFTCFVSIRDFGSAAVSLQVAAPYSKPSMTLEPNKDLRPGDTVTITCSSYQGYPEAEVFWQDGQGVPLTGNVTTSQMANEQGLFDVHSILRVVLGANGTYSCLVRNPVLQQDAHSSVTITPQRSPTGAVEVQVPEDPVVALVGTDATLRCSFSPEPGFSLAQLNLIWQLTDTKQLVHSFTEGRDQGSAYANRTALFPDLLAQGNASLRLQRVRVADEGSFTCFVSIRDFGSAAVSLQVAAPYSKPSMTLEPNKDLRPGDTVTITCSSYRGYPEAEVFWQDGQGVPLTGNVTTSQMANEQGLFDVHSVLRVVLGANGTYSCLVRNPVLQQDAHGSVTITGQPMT
- protocol_details: BLI (ForteBio Octet QKe), antibody on AHC probes, 60 nM antigen, 1:1 Langmuir fit
metric_name: pKd
Please keep in mind that pKd is minus log10 of the molar concentration; only the number is needed.

Briefly, pKd measured for hz10B4 (antibody, V domains shown, Humanized anti-B7-H3 antibody prepared by the method of CN114573695A; also called parent hz10B4; hz10B4-VH×hz10B4-VL) VH: EVQLVQSGAEVKKPGASVKVSCKASGYTFTEYIMHWVRQAPGQGLEWMGGINPASGGTTYNQKFKGRVTMTRDTSISTAYMELSRLRSEDTAVYYCARKGKDYFDWYFDVWGQGTTVTVSS VL: DIQLTQSPSSLSASVGDRVTMTCSASSSVSYMHWYQQKPGKAPKLLIYDTSKLASGVPSRFSGSGSGTDFTLTISSLQPEDFATYYCQQWSSNPLTFGGGTKVEIK : 9.67

Briefly, pKd measured for hz10B4m3 (antibody, V domains shown, LCDR3 variant of hz10B4 (SSN→SSQ); also called hz10B4-VH×hz10B4-Lm3-VL) VH: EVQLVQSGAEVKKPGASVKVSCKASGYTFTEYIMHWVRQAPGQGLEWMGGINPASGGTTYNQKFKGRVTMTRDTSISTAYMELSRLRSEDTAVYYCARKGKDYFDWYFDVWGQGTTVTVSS VL: DIQLTQSPSSLSASVGDRVTMTCSASSSVSYMHWYQQKPGKAPKLLIYDTSKLASGVPSRFSGSGSGTDFTLTISSLQPEDFATYYCQQWSSQPLTFGGGTKVEIK : 9.37
